Measured GI50 by item
tested on: UACC-257; test: NCI tumour cell line growth inhibition, 48 h
The source made the active and inactive calls. Cut-off read from the data, not from the text of the source: active = GI50 up to about 1.1 µM and inactive = higher.

Recorded results for 3 compounds are shown here.
> print(dat)
                                   compound  readout.kind               result
1  Cc1nc(Nc2ccc(Cl)cc2)sc1C(=O)NNC(=O)C(=O)NN          GI50   25.1 µM (inactive)
2  COC(C(=O)NCCCCNC(=O)C(OC)c1ccccc1)c1ccccc1 (stereo not drawn)          GI50  > 100 µM (inactive)
3  C=C(C)[C@H]1CC[C@@]2(C)C(C1)[C@H](C)CC[C@@H]2O (stereo partly drawn)          GI50  > 100 µM (inactive)

Recorded result, NC1=C(NC(=O)Cc2ccc(F)cc2)C(=O)c2ccccc2C1=O , GI50: 79.3 µM (inactive)

// GI50 lookup, compound = CC(C)CCS(=O)(=O)OCCCCOS(=O)(=O)CCC(C)C , result: > 100 µM (inactive)

Noted for Cc1ccc(S(=O)(=O)Nn2c(C)cc3ccc(S(=O)(=O)Nc4ccccc4[N+](=O)[O-])cc3c2=O)cc1 : its GI50 reads > 100 µM (inactive)
